- TARGET SYSTEM: MMP-9 (Homo sapiens)
- Construct: from tissue; host or cells: human polymorphonuclear leukocytes (PMN) from whole blood (New York Blood Center), PMA-stimulated supernatant
- PROTOCOL DESCRIPTION: Thiopeptilide MMP-9 Inhibition Assay
- Assay type: biochemical
- CONDITION DESCRIPTION: pH 6.5; x (n) = average of n determinations; read-out: MMP-9: Thiopep. IC50
pIC50: −log10 of the molar value.
QUANTITY MEASURED: pIC50

# example entries with known answers
COMPOUND | pIC50
CC(C)c1ccccc1SCC(CC(=O)c1ccc(-c2ccc(Cl)cc2)cc1)C(=O)O (centres unmarked) | 5.62
O=C(O)[C@@H]1[C@@H](C(=O)c2ccc(-c3ccc(Cl)cc3)cc2)CC[C@H]1Sc1ccccc1 (relative stereo) | 7.25
CNC(=O)c1ccccc1SCC(CC(=O)c1ccc(-c2ccc(Cl)cc2)cc1)C(=O)O (centres unmarked) | 6.10
CSCCCC(CC(=O)c1ccc(-c2ccc(Cl)cc2)cc1)C(=O)O (centres unmarked) | 6.19

(I) O=C(CC(COCc1ccccc1)C(=O)O)c1ccc(-c2ccc(Cl)cc2)cc1 (centres unmarked)
(II) CC(=O)SCC(CC(=O)O)C(=O)c1ccc(-c2ccc(Cl)cc2)cc1 (centres unmarked) [Example 258, reference compound]
(III) CCCCCc1ccc(-c2ccc(C(=O)CC(CC(C)C)C(=O)O)cc2)cc1 (centres unmarked)
Query: Rank the items in ascending order with respect to pIC50. Enter labels, ranked according to the request.
Response: II, III, I

###

- TARGET SYSTEM: MMP-9 (Homo sapiens, UniProt P14780)
- Construct: from tissue; host or cells: human polymorphonuclear leukocytes (PMN) from whole blood (New York Blood Center), PMA-stimulated supernatant
- Sequence (P14780 107-707 limits assumed): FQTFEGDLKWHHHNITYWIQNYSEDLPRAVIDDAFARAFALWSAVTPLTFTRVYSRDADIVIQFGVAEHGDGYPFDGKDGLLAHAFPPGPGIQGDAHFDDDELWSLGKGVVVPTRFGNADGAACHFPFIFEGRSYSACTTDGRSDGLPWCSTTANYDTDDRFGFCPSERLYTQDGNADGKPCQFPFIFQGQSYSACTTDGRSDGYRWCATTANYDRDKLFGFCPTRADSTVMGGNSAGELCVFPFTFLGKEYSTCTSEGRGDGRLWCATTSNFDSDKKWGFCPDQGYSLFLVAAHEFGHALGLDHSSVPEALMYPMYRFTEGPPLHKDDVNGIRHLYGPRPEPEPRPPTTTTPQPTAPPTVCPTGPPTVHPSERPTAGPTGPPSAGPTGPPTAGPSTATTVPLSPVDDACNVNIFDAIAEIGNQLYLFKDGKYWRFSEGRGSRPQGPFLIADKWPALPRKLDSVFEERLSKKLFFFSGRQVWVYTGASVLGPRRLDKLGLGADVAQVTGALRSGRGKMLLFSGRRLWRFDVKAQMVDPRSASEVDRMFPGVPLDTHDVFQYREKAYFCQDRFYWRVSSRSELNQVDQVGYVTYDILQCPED
- PROTOCOL DESCRIPTION: Thiopeptilide MMP-9 Inhibition Assay
- Format: biochemical
- CONDITION DESCRIPTION: at 5 μM; read-out: MMP-9: Thiopep. % inhibition
Where a name gives a salt, the structure may show the parent alone.
QUANTITY MEASURED: inhibition at 5 µM (%)

Solved cases below.
COMPOUND | UNIT STRING | inhibition at 5 µM
Nc1ccc(-c2ccc(C(=O)CC(CCc3ccccc3)C(=O)O)cc2)cc1 (centres unmarked) | % | 50
O=C(O)C1C2C=CC(CC2)C1C(=O)c1ccc(-c2ccc(Cl)cc2)cc1 (centres unmarked) | % | 16
O=C(CC(Cc1ccc(-c2ccccc2)cc1)C(=O)O)c1ccc(-c2ccc(Cl)cc2)cc1 (centres unmarked) | % | 17
O=C(CC(CCCc1ccccc1)P(=O)(O)O)c1ccc(-c2ccc(Br)cc2)cc1 (centres unmarked) | % | 30
CCN(CC)CCCC(CC(=O)c1ccc(-c2ccc(Cl)cc2)cc1)C(=O)O (centres unmarked) [Example 265, trifluoroacetate] | % | 42

(I) CN(C)CCC(CC(=O)c1ccc(-c2ccc(Cl)cc2)cc1)C(=O)O (centres unmarked) [Example 263, hydrochloride]
(II) O=C(CC(CCCc1ccccc1)C(=O)O)c1ccc(-c2cc(C(F)(F)F)cc(C(F)(F)F)c2)cc1 (centres unmarked)
Query: Return label of the item with the larger inhibition at 5 µM. Candidates: I , II . Refer to your chosen entry by its label in the reply.
Response: I
(I: 21%, II: 9%)

###

Each entry below carries its recorded IC50.
- TARGET SYSTEM: MMP-3 (Homo sapiens)
- Construct: Truncated Prostromelysin-257 was expressed in a soluble form in E.coli; made in house; host or cells: E. coli
- Sequence (P08254 100-274 limits assumed): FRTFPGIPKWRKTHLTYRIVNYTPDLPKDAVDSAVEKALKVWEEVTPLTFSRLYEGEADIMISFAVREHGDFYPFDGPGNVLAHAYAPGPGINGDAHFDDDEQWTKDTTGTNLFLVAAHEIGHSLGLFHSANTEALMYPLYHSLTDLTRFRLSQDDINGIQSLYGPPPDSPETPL
- PROTOCOL DESCRIPTION: Automated MMP Profiling Assay, MMP-3 fluorogenic
- Type: biochemical
- CONDITION DESCRIPTION: 96-well automated, P218
Report as a plain number; the unit nM is understood.

Recorded IC50, per entry:
COMPOUND | UNIT STRING | OBSERVED RESULT
O=C(CC(CCN1C(=O)c2ccccc2C1=O)C(=O)O)c1ccc(-c2ccc(OCc3ccccc3)cc2)cc1 (centres unmarked) | nM | 5.2
COC/C=C/c1ccc(-c2ccc(C(=O)CC(CCCc3ccccc3)C(=O)O)cc2)cc1 (centres unmarked) | nM | 84
CC(C)COc1ccc(-c2ccc(C(=O)CC(CCCc3ccccc3)C(=O)O)cc2)cc1 (centres unmarked) | nM | 224
CC(=O)Oc1ccc2c(c1)C(=O)N(CCC(CC(=O)c1ccc(-c3ccc(Cl)cc3)cc1)C(=O)O)C2=O (centres unmarked) | nM | 3.8

Query: State the recorded IC50 for this entry: CCCSC[C@@H]1CC[C@H](C(=O)c2ccc(-c3ccc(Cl)cc3)cc2)[C@H]1C(=O)O (relative stereo)
Response: 54

Query: I would be grateful if you could share the reported IC50 for COCCCc1ccc(-c2ccc(C(=O)CC(CCCc3ccccc3)C(=O)O)cc2)cc1 (centres unmarked) .
Response: 508

Query: Please give the measured IC50 for this compound: O=C(CC(CCN1C(=O)c2ccccc2C1=O)C(=O)O)c1ccc(-c2ccc(Cl)cc2)cc1 (racemic)
Response: 15

###

Quick reference: pIC50 of the listed items.
- TARGET SYSTEM: MMP-9 (Homo sapiens)
- Construct: from tissue; host or cells: human polymorphonuclear leukocytes (PMN) from whole blood (New York Blood Center), PMA-stimulated supernatant
- PROTOCOL DESCRIPTION: Automated MMP Profiling Assay, MMP-9 fluorogenic
- Assay type: biochemical
- CONDITION DESCRIPTION: 96-well automated, P218
Scale: negative log10 of molar concentration, which is what pIC50 denotes.

Here are 2 compounds together with their reported answers.
COMPOUND | QUANTITY MEASURED | OBSERVED RESULT
O=C(CC(CCN1C(=O)c2cc3c(cc2C1=O)OCO3)C(=O)O)c1ccc(-c2ccc(Cl)cc2)cc1 (stereo not shown) | pIC50 | 9.07
O=C(CC(CCN1C(=O)c2cccc3c(Br)ccc(c23)C1=O)C(=O)O)c1ccc(-c2ccc(Cl)cc2)cc1 (stereo not shown) | pIC50 | 7.05

Query: Quick one: pIC50 for CCCOc1ccc2c(c1)C(=O)N(CCC(CC(=O)c1ccc(-c3ccc(Cl)cc3)cc1)C(=O)O)C2=O (stereo not shown) ?
Response: 8.77

Query: // pIC50 lookup, key: Cc1cccc(C(=O)OC[C@@H]2CC[C@H](C(=O)c3ccc(-c4ccc(Cl)cc4)cc3)[C@H]2C(=O)O)c1 (relative stereo)
Response: 7.32

###

Measured IC50, listed per entry.
- TARGET SYSTEM: MMP-3 (Homo sapiens)
- Construct: Truncated Prostromelysin-257 was expressed in a soluble form in E.coli; made in house; host or cells: E. coli
- PROTOCOL DESCRIPTION: Automated MMP Profiling Assay, MMP-3 fluorogenic
- Type: biochemical
- CONDITION DESCRIPTION: 96-well automated, P218
# number only, unit nM dropped from output

Observe how each entry below is paired with its result.
MOLECULE | TARGET SYSTEM | IC50 [nM]
O=C(O)[C@H]1[C@H](COc2ccccc2)CC[C@@H]1C(=O)c1ccc(-c2ccc(Cl)cc2)cc1 (relative stereo) | MMP-3 (Homo sapiens) | 22
O=C(CC(CCCCN1C(=O)c2ccccc2C1=O)C(=O)O)c1ccc(-c2ccc(Cl)cc2)cc1 (stereo not shown) | MMP-3 (Homo sapiens) | 38
O=C(O)[C@@H]1[C@@H](Sc2ccccc2)CC[C@H]1C(=O)c1ccc(-c2ccc(Cl)cc2)cc1 | MMP-3 (Homo sapiens) | 5750
O=C(CC(CCN1C(=O)CCC1=O)C(=O)O)c1ccc(-c2ccc(Cl)cc2)cc1 (stereo not shown) | MMP-3 (Homo sapiens) | 116
O=C(O)[C@H]1[C@H](CN2C(=O)c3ccccc3C2=O)CC[C@@H]1C(=O)c1ccc(-c2ccc(Cl)cc2)cc1 [Example 361] | MMP-3 (Homo sapiens) | 3

Query: // query IC50 value for entry COc1ccccc1C(=O)OC[C@@H]1CC[C@H](C(=O)c2ccc(-c3ccc(Cl)cc3)cc2)[C@H]1C(=O)O (relative stereo)
Response: 46

Query: Which IC50 value is on record for COc1ccc(-c2ccc(C(=O)CC(CCc3ccccc3)C(=O)O)cc2)cc1 (stereo not shown) ?
Response: 470

###

- TARGET SYSTEM: MMP-3 (Homo sapiens)
- Construct: Truncated Prostromelysin-257 was expressed in a soluble form in E.coli; made in house; host or cells: E. coli
- PROTOCOL DESCRIPTION: Automated MMP Profiling Assay, MMP-3 fluorogenic
- Format: biochemical
- CONDITION DESCRIPTION: 96-well automated, P218
QUANTITY MEASURED: IC50 (nM)
Provide only the numeric value, understood in nM.

MOLECULE | IC50 (nM)
O=C(c1ccc(-c2ccc(Cl)cc2)cc1)[C@H]1CCN(C(=O)CCc2ccccc2)[C@@H]1C(=O)O | 245
O=C(NC[C@@H]1CC[C@H](C(=O)c2ccc(-c3ccc(Cl)cc3)cc2)[C@H]1C(=O)O)OCc1ccccc1 (relative stereo) | 24
Cc1cccc(C)c1SCC(CC(=O)c1ccc(-c2ccc(Cl)cc2)cc1)C(=O)O (stereo not shown) | 103

Query: Under MMP-3 (Homo sapiens): IC50 value of CC(C)COC(=O)N1CC[C@H](C(=O)c2ccc(-c3ccc(Cl)cc3)cc2)[C@H]1C(=O)O ?
Response: 456

Query: Find the measured IC50: item O=C(CC(CCc1ccccc1)C(=O)O)c1ccc(-c2ccc(OCc3ccccc3)cc2)cc1 (stereo not shown) , target or system MMP-3 (Homo sapiens).
Response: 46

Query: Given the entry CCN(CC)C(=O)c1cccc(CC[C@H](CC(=O)c2ccc(-c3ccc(Cl)cc3)cc2)C(=O)O)c1 , what IC50 was observed with MMP-3 (Homo sapiens)?
Response: 2400

Query: Which IC50 is reported with MMP-3 (Homo sapiens) for this entry: COCCOCOC[C@@H]1CC[C@H](C(=O)c2ccc(-c3ccc(Cl)cc3)cc2)[C@H]1C(=O)O (relative stereo) ?
Response: 10
